Listed here are compounds together with their documented melting point.

Study these solved cases before continuing.
CC(=O)Nc1nc(C)c(CCC(C)c2ccc(Cl)cc2)c(NC(C)=O)n1 (stereo not given)
136 to 138 °C
Cc1nc(-c2ccc(F)cc2)sc1C(=O)NCc1ccc(OC(C)(C)C(=O)O)cc1
159 °C
COc1cc2c(Nc3ccc(Cl)cc3F)ncnc2cc1OCCSC
174 to 176 °C

Data request: Consider the compound N#Cc1[nH]c2ccc(C(O)(C(F)(F)F)C(F)(F)F)cc2c1-c1ccccc1 and give its measured melting point.
Data returned: 247 to 249 °C

Data request: // repeat for Nc1ncccc1NCc1ccc(Oc2ccc(F)cc2)cc1 and report
Data returned: 117 to 118 °C

Data request: // repeat for Oc1ccc(-c2cc3cc(O)cc(-c4nnco4)c3o2)cc1 and report
Data returned: 260 to 266 °C
